Catalogue of percentage of binding readings, one per entry.
Biological target: T1, human BCMA on the cell membrane surface (H929 and RPMI8226 cells) (human, UniProt Q02223 1-184)
T1 construct: whole, on cells; also called BCMA antigen on the cell membrane surface; BCMA-expressing cell line H929
T1 sequence (looked up): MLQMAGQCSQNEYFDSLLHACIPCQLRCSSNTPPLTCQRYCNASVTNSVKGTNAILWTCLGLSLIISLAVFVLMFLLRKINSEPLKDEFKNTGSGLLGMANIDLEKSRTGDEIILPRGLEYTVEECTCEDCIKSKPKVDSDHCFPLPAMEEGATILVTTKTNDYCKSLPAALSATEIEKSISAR
Assay: flow cytometry on H929 cells, scFv-Fc
Numbers only; they are read as %.

Here's what some known entries look like.
B10.4 scFv-Fc (Fc fusion, also called mutant B10.4; not shown: Fc (scFv-Fc)) scFv: QVQLQQSGAEVKKPGSSVKVSCKASGGTFSKSAIMWVRQAPGQGLEWMGGVIPIFGTANYAQKFQGRVTITADESTSTAYMELSSLRSEDTAVYYCARGWYLDLWGRGTLVTVSSASTGGSSRSSSSGGGGSGGGGLPVLTQPPSASGTPGQRVTISCSGSSNNIGGYSVNWYQQFPGTAPKLLIYRNNQRPSGVPDRFSGSKSGASFSLAISGLQFEDEADYYCARWDDSVIGWVLGTGTQLTVL: 97.9
B10 scFv-Fc protein (B10 parental antibody) (Fc fusion, scFv gene fused with the Fc gene of human IgG4 (plasmid pFH-B10); also called clone B10; scFv-Fc protein of B10; not shown: Fc of human IgG4 from vector pFH) scFv: QVQLQQSGAEVKKPGSSVKVSCKASGGTFSSYAISWVRQAPGQGLEWMGGIIPIFGTANYAQKFQGRVTITADESTSTAYMELSSLRSEDTAVYYCARGWYFDLWGRGTLVTVSSASTGGSSRSSSSGGGGSGGGGLPVLTQPPSASGTPGQRVTISCSGSSSNIGGYSVNWYQQFPGTAPKLLIYRNNQRPSGVPDRFSGSKSGASASLAISGLQSEDEADYYCAAWDDSLIGYVFGTGTQLTVL: 75.3
B10.9 scFv-Fc (Fc fusion, also called mutant B10.9; not shown: Fc (scFv-Fc)) scFv: QVQLQQSGAEVKKPGSSVKVSCKASGGTFSKSAIQWVRQAPGQGLEWMGGVIPIFGTANYAQKFQGRVTITADESTSTAYMELSSLRSEDTAVYYCARGWYLDLWGRGTLVTVSSASTGGSSRSSSSGGGGSGGGGLPVLTQPPSASGTPGQRVTISCSGSSNNIGGYSVNWYQQFPGTAPKLLIYRNNQRPSGVPDRFSGSKSGASASLAISGLQSEDEADYYCAAWDDSEIGWLFGTGTQLTVL: 91.6

# context switch: different binder, same percentage of binding
(Q) For the binder B10.3 scFv-Fc (Fc fusion, also called mutant B10.3; not shown: Fc (scFv-Fc)) scFv: QVQLQQSGAEVKKPGSSVKVSCKASGGTFSKSAIQWVRQAPGQGLEWMGGVIPIFGTANYAQKFQGRVTITADESTSTAYMELSSLRSEDTAVYYCARGWYLDLWGRGTLVTVSSASTGGSSRSSSSGGGGSGGGGLPVLTQPPSASGTPGQRVTISCSGSSNNIGGYSVNWYQQFPGTAPKLLIYRNNQRPSGVPDRFSGSKSGASASLAISGLQSEDEADYYCAAWDDSVIGWLFGTGTQLTVL , what percentage of binding is on record?
(A) 98
